# Test system: Aspergillus fumigatus infected and uninfected guinea pig broncheoaveolar lavage fluid
# testName: Screening probes against Aspergillus fumigatus infected and uninfected guinea pig BALF (Table 2)
# Assay type: biochemical
# assaySetup: strain AF293; t=6 hour
experimentalEndpoint: % FE (percentage fluorescence efficiency) (%)
Give bare numbers, in %.

>  <substance>
MeOCGly-GGPNPNPGG Dap(DNP)KK-NH2

>  <reported>
355.02

$$$$
>  <substance>
MeOCGly-GGPFPGG Dap(DNP)KK-NH2

>  <reported>
227.09

$$$$
>  <substance>
MeOCGly-GGPHPGG Dap(DNP)KK-NH2

>  <reported>
219.69

$$$$

Entry MeOCGly-GGPSPGG Dap(DNP)KK-NH2 ; % FE (percentage fluorescence efficiency) = 309.39

Hey, just so you know, these numbers are from patent US20120065103A1.
